# System: OVCAR-3 ovarian
# procedure_text: NCI-60 one-dose screen, 48 h
# setup_conditions: 10 µM unless noted
# Protocol: Growth inhibition of the OVCAR-3 human tumor cell line is measured as a screen for anti-cancer activity. Cells are grown in 96 well plates and exposed to the test compound for 48 hours. Compounds are tested at a single concentration, which is 10^-5 M for most compounds. The reported endpoint is percent growth (GI% or GIPRCNT), where numbers from 0 - 100% represent growth inhibition, and numbers from -100% - 0 represent cell death. For example, a value of 40 represents 60% growth inhibition. […]
The panel holds about 83,000 compounds, 20% with a hit somewhere; the sample as a whole holds those more often. Calls of active or inactive are those of the source. How the source made its calls: active means growth percent below 10; inactive means the rest.
Use one of these outcomes when replying: active, inactive

CCOC(=O)C/C(=N\Nc1cc(=O)[nH]c2ccc(Br)cc12)C(=O)OCC
inactive
CS(=O)(=O)Nc1cc(-c2ccc3ncnc(Nc4ccc5c(cnn5Cc5cccc(F)c5)c4)c3c2)cnc1Cl
active
C#CCOc1cccc(Nc2ncnc3ccc(NC(=O)C=C)cc23)c1
inactive

Query :: Could you kindly confirm the outcome this assay logged for NC(=O)CSc1oc(-c2ccccc2)nc1S(=O)(=O)c1ccc(Br)cc1 ?
Result :: inactive

Query :: Could you kindly confirm the outcome this assay logged for N#CC(C#N)N=Nc1ccc(Br)cc1 ?
Result :: inactive

Query :: Could you kindly confirm the outcome this assay logged for O=c1scc(-c2ccc(C(F)(F)F)cc2)s1 ?
Result :: inactive

====

# System: MDA-MB-435 melanoma
# procedure_text: NCI-60 one-dose screen, 48 h (100 = growth as untreated, 0 = no growth, -100 = all killed)
# setup_conditions: 10 µM unless noted
The panel holds about 83,000 compounds, 20% with a hit somewhere; the sample as a whole holds those more often. The source made the active and inactive calls. How the source made its calls: active means growth percent below 10; inactive means the rest.
The entries below come with measured growth values attached.

Please review the following examples before continuing.
CCCCCCCC[C@@H]1N[C@@H](C(=O)OC)Cc2c1[nH]c1ccccc21
99.8% (inactive)
COc1ccc(-c2nn(-c3cccc(Cl)c3)cc2-c2cc(-c3ccc(Br)cc3)nc(N)n2)cc1
99.6% (inactive)
N#Cc1c(-c2ccccc2)[nH]c2ncc(-c3ccccc3)n2c1=O
102% (inactive)
C=CCSc1nnc(NC(=O)CCl)s1
90.8% (inactive)
COc1cc(OCc2cccc(Br)c2C)cc(OC)c1C=O
87.8% (inactive)
O=C(O)c1cn(C2CC2)c2cc(N3CCN(C(=O)N(c4ccccc4)c4nc(-c5ccccc5)cs4)CC3)c(F)cc2c1=O
8.3% (active)
COc1ccc(-c2noc(C(=O)O)c2-c2cc(OC)c(OC)c(OC)c2)cc1
-41.5% (active)
COc1cc(C2CC(c3ccc(Nc4nc(Nc5ccc(Cl)cc5)nc(Nc5ccc(Cl)cc5)n4)cc3)=NN2C(C)=O)cc(OC)c1OC (centres undefined)
89.1% (inactive)

Query :: Reported growth, compound Cc1sc2nc(NCCc3c[nH]c4ccc(Cl)cc34)[nH]c(=O)c2c1C : ____
Result :: 39.7% (inactive)

====

# Tested on: HOP-62 NSCLC
# procedure_text: NCI-60 one-dose screen, 48 h (100 = growth as untreated, 0 = no growth, -100 = all killed)
# setup_conditions: 10 µM unless noted
# Experimental: Growth inhibition of the HOP-62 human Non-Small Cell Lung tumor cell line is measured as a screen for anti-cancer activity. Cells are grown in 96 well plates and exposed to the test compound for 48 hours. Compounds are tested at a single concentration, which is 10^-5 M for most compounds. The reported endpoint is percent growth (GI% or GIPRCNT), where numbers from 0 - 100% represent growth inhibition, and numbers from -100% - 0 represent cell death. […]
Compounds without any hit were thinned out: in the full panel of roughly 83,000, 20% have a hit.
Is growth at least 40%? Then TRUE. If not, FALSE.

Cc1ccc(Nn2c(SCC(=O)Nc3nc(-c4ccccc4)cs3)nc(C)c2C)cc1
TRUE

Next, consider the following molecule.
Query :: Kindly determine if growth recorded for Nc1nc2ccccc2c2c1S(=O)(=O)c1ccc(Cl)cc1C2=O is above or exactly 40%.
Result :: FALSE

From: PubChem BioAssay (NCI)
